target: catalytic domain of human collagenase-3 (MMP-13) (Homo sapiens, UniProt P45452); construct: Determining the enzymic activity of the catalytic domain of human collagenase-3 (MMP-13); experiment: Enzymic activity of the catalytic domain of human collagenase-3 (MMP-13), fluorogenic substrate; settings: activated with APMA, pH 7.5, read-out: IC50 MMP13
pIC50: −log10 of the molar value.
Result Type: pIC50

- Compound: "O=C(NCc1ccc(F)cc1)c1cc(C(=O)NCc2ccc(F)cc2)ncn1 [Example 15]"
  Readout Number: 6.72
- Compound: "COc1ccc(CNC(=O)c2cc(C(=O)NCc3ccc(OC)cc3)ncn2)cc1 [Example 17]"
  Readout Number: 7.10
- Compound: "O=C(NCc1ccc(F)c(F)c1)c1cc(C(=O)NCc2ccc(F)c(F)c2)ncn1 [Example 16]"
  Readout Number: 6.98
- Compound: "Cc1ccc(CNC(=O)c2cc(C(=O)NCc3ccc(C)cc3)ncn2)cc1 [Example 5]"
  Readout Number: 5.70
- Compound: "O=C(NCc1cccc(Cl)c1)c1cc(C(=O)NCc2cccc(Cl)c2)ncn1 [Example 19]"
  Readout Number: 7.24
- Compound: "O=C(NCc1ccc(F)c(C(F)(F)F)c1)c1cc(C(=O)NCc2ccc(F)c(C(F)(F)F)c2)ncn1 [Example 13]"
  Readout Number: 6.68
- Compound: "O=C(NCc1ccc(F)cc1)c1ccnc(C(=O)NCc2ccc(F)cc2)c1 [Example 7]"
  Readout Number: 6.21
- Compound: "O=C(NCc1cccc(Cl)c1)c1ccnc(C(=O)NCc2cccc(Cl)c2)c1 [Example 12]"
  Readout Number: 6.59
- Compound: "O=C(NCc1cccc(OC(F)(F)F)c1)c1cc(C(=O)NCc2cccc(OC(F)(F)F)c2)ncn1 [Example 6]"
  Readout Number: 6.15
- Compound: "Cc1cccc(CNC(=O)c2ccnc(C(=O)NCc3cccc(C)c3)c2)c1 [Example 8]"
  Readout Number: 6.40
- Compound: "O=C(NCc1ccc(F)c(Cl)c1)c1cc(C(=O)NCc2ccc(F)c(Cl)c2)ncn1 [Example 2]"
  Readout Number: 7.64
- Compound: "COc1ccc(CNC(=O)c2ccnc(C(=O)NCc3ccc(OC)cc3)c2)cc1 [Example 9]"
  Readout Number: 6.49
